The origin of these recorded values is ChEMBL document CHEMBL3244208.

- Procedure Details: 1-Octanol-water partition coefficient, log P of the compound by spectrophotometer analysis
- Format: physicochemical
hey, just use T if measured logP is less than 1, otherwise F

INSERT INTO assay_data (compound, class_label) VALUES
  ('Cc1ccc(O)c2ncccc12 [TILIQUINOL]', 'F'),
  ('Oc1ccc(Cl)c2cccnc12 [CLOXYQUIN]', 'F'),
  ('O=[N+]([O-])c1ccc(O)c2ncccc12 [NITROXOLINE]', 'T'),
  ('CN(C)Cc1ccc(O)c2ncccc12', 'F'),
  ('CCN(CC)Cc1ccc(O)c2ncccc12', 'F'),
  ('COc1ccc(O)c2ncccc12', 'F');

* * *

Reported values of logP for individual entries
- Procedure Details: 1-Octanol-water partition coefficient, log P of the compound by spectrophotometer analysis corrected for ionization
- Assay type: physicochemical
Recorded Endpoint: logP

INSERT INTO measurements (chemical_structure, reading) VALUES
  ('OCc1ccc(O)c2ncccc12', 1),
  ('CC(=O)c1ccc(O)c2ncccc12', 1.96),
  ('COc1ccc(O)c2ncccc12', 2.1),
  ('Cc1ccc(O)c2ncccc12', 2.38),
  ('O=[N+]([O-])c1ccc(O)c2ncccc12', 0.11),
  ('O=Cc1ccc(O)c2ncccc12', 2.07),
  ('Oc1cccc2cccnc12', 1.95),
  ('Oc1ccc(Cl)c2cccnc12', 2.94),
  ('N#CCc1ccc(O)c2ncccc12', 1.82),
  ('Oc1ccc(I)c2cccnc12', 3.29),
  ('CCOC(=O)Cc1ccc(O)c2ncccc12', 2.27),
  ('CCN(CC)Cc1ccc(O)c2ncccc12', 4.41),
  ('CN(C)Cc1ccc(O)c2ncccc12', 2.37);
